# TEST_DESCRIPTION: DUX4 transcriptional activity inhibition in cells – 293T cells, Gaussia and Italica luciferase, primary screen (AID 1224904);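 note: 0% = median of neutral control wells and -100% = median of positive control wells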
# RUN_CONDITIONS: 293T-iDUX4 ZSCAN4-Gaussia luciferase reporter, 24 h; measured here: Italica tet-on control reporter; stronger effect = lower value; concentration not given here
About 290 (0.78%) of roughly 37,000 compounds were called active. Another 10% or so got no clear call; they are omitted. Many of the other results were omitted from the sample, so actives are more common in it than they were.
READOUT_KIND: activity change, negative = inhibition (%)

| COMPOUND | ASSAY_VALUE |
| --- | --- |
| CN(C)C(=O)C[C@@H]1C[C@H]2c3cc(NC(=O)Nc4ccccc4F)ccc3O[C@H]2[C@@H](CO)O1 | 4.62 |
| CCCNC(=O)N1C[C@@H](O)COC[C@H]2O[C@H](CC(=O)N3CCC(Cc4ccccc4)CC3)CC[C@@H]21 | -2.25 |
| COc1ccccc1-c1ccc2n(c1=O)C[C@@H]1[C@@H](CO)[C@H](C(=O)NCc3ccccc3Cl)N[C@H]21 | -7.51 |
| Cc1ccccc1S(=O)(=O)Nc1ccc2c(c1)C(=O)N(C)[C@@H]1CC[C@@H](CC(=O)O)O[C@@H]1CO2 | -0.782 |
| CCS(=O)(=O)N1Cc2cc(C(=O)N(C)C)nc(-c3cccc(-c4ccc(C#N)cc4)c3)c2[C@H]1CCO | 2.65 |
| CC(C)NC(=O)N1[C@H](CO)[C@H](c2ccccc2)C12CN(C(=O)Cc1cccnc1)C2 | 5.85 |
| COCCN(C[C@H]1[C@@H](c2ccccc2)[C@H](CO)N1C(=O)C1CCC1)C(C)=O | 5.46 |
| C[C@H](O)C#Cc1ccc([C@@H]2[C@H](CO)N3CCCCN(CC4CC4)C[C@@H]23)cc1 | 9.01 |
| O=C(Cc1ccccc1)N1C[C@H]2[C@@H](c3ccccc31)[C@H](CO)N2C(=O)C1CCOCC1 | -3.56 |
| COc1ccc2c3c(n(C)c2c1)[C@H](CO)N(Cc1ccccc1F)CC31CN(C(=O)C2CCC2)C1 | 3.73 |
| O=C(NCC(F)(F)F)[C@H]1[C@H](CO)[C@H]2Cn3c(ccc(-c4ccncc4)c3=O)[C@H]2N1Cc1ccncc1 | -1.87 |
| CCCNC(=O)N1C[C@@H](C)[C@@H](OC)CN(C)C(=O)c2ccc(NC(=O)C3CCC3)cc2OC[C@@H]1C | -2.2 |
| COCC(=O)Nc1ccc2c(c1)C(=O)N(C)[C@@H]1CC[C@H](CC(=O)NCCc3ccccc3)O[C@@H]1CO2 | 5.13 |
| O=C(C[C@@H]1C[C@H]2c3cc(NC(=O)Nc4ccccc4F)ccc3O[C@H]2[C@@H](CO)O1)NCc1ccncc1 | 0.554 |
| O=C(Cc1ccccc1)N1C[C@@H]2[C@H](c3ccccc31)[C@@H](CO)N2C(=O)C1CCOCC1 | 2.15 |
| CCCNC(=O)N1[C@H](CO)[C@@H]2c3ccccc3N(C(=O)C3CCOCC3)C[C@@H]21 | -0.682 |
| COc1ccc(S(=O)(=O)Nc2ccc3c(c2)C(=O)N([C@@H](C)CO)C[C@@H](C)[C@H](CN(C)C(=O)CCC(F)(F)F)OCCCC[C@H](C)O3)cc1 | 1.87 |
